# System: PPARg:RXRa DBDmut IVT, anti-RXR (DBD mutation: RXRa K156A/R161A, NR concentration 270 nM, RXRa partner concentration 90 nM)
# protocol: PBM binding z-score (relative to random genomic background probes); higher = stronger binding; sequences stand for … in GC…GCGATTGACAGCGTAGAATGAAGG
This listing pairs sequences with measured PBM binding z-score.
testReadout: PBM binding z-score

• CCTACAGGGCCAAAAAGGTCATTGATGCCGATAA = -0.0995
• ACAGACAGGTGATGAAGGTATCTCAGGCTATCAT = -0.101
• AGTCAAAGTTCAGGAAGAGGTAACGTAAAGCACG = 0.106
• CGTCCAAGGTCAGCAGGTCAGTGAGAGCGACGTG = 2.88
• TTACCAAGGTGAGCTGAGGACGTTGATCCAACTC = 0.681
• TAGCCTAGGTCATTCAGGGGCCGGTATAGAAAGC = 1.8
• CCTAGCAGGCCAATCTGGGTCAGTCAAGGCTTGA = 3.27
• CCGAGTAGGTTATGCGGCATTCAGGCAACGGTGA = 2.82
• GATACAGGGTCAAGCCCAGAGTACGCGTATTGAT = 3.47
• GCATATAGGTAATACAAGGTGTAAGTCCGATTGT = 4.05
• CAGCCTAGGTCCGGGCCAGTATAGGAGGAACGTT = -1.2
• CCAGACAGGTGAGAAGGTAACTCCGCCTCGATTA = 1.06
• CCGAGTAGGTTATGGGGCAATCAGGCAACGGTGA = 3.71
• CACACTAGGTCAAGGTCAAAGTCGGTTTGTGCCA = 7.8
• ACTATTAGTTGAGACGAGGGCCACCGATAGGTTG = -0.292
• TCGAGTAGGTTAGTCGGGGCACTCAGCCAACATA = 2.29
• CGTCCAAGGTCAATGCTTGGTCAGTGAAAGCATT = 2.65
• TCTTGTAGATCTGCAGGTTAAGAAAGCTGGCCAA = 1.64
• ATCTCTAGGTAGAAGTTCAGTGAATCCCGAGGAT = 0.0712
• ACTTGCGGGTCAACGAGGTTATAGCACGCGTATA = 5.15
• AGTCAAAGTTCAGGACGAGGTAACGCAAAGCACG = -0.0629
• ATATATAGGTTAGCTGGGGTCATTCAGACTAGGC = 6.82
• TGAATGAGGATAAAGATCAGGGAACGTGGCGTCG = -0.598
• CAAACTAGGTCACCGGACGGTCAAAGTCCGCATG = 8.62
• TAGCCTAGGTCATGCGGGCCCGTATAGTGTCGGC = 1.87
• AGTCAACGTTCAGGACGAGGTAACGTAAAGCACG = -0.667
